Where do these numbers come from? They come from ChEMBL document CHEMBL3124792.

Test: AUC (0 to 6 hrs) in rat at 5 mg/kg, iv
Type: ADME, organism-based
Set-up: time < 6 hr, dose 5 mg/kg, route intravenous
Details: plasma
measured-metric: AUC(0-t) at 6 h
Units required after the number.

AUC(0-t) at 6 h recorded for this molecule, "COc1ccc2c(c1)[C@@H]1C[C@]1(C(=O)N1C3CC1CN(C)C3)Cn1c-2c(C2CCCCC2)c2ccc(C(=O)NS(=O)(=O)N(C)C)cc21" , is 11.2 µM·h

---

Experiment: Inhibition of Hepatitis C virus genotype 3a NS5B
Parameters: species or system Hepatitis C virus subtype 3a
measured-metric: IC50 (nM)
Just the number please, in nM, no unit attached.

Query COc1ccc2c(c1)[C@@H]1C[C@]1(C(=O)N1[C@@H]3CC[C@H]1CN(C)C3)Cn1c-2c(C2CCCCC2)c2ccc(C(=O)NS(=O)(=O)N(C)C)cc21 [BECLABUVIR] yields IC50 of 2

---

System: Liver microsome
Conditions: rat, microsomes
measured-metric: Stability
The reply should consist of the numeric value with the unit placed after it.

Short answer for "COc1ccc2c(c1)[C@@H]1C[C@]1(C(=O)N1C3CC1CN(C)C3)Cn1c-2c(C2CCCCC2)c2ccc(C(=O)NS(=O)(=O)N(C)C)cc21" : Stability was 98%

Recorded Stability (molecule COc1ccc2c(c1)C1CC1(C(=O)N1C[C@@H](C)N(C(C)=O)[C@@H](C)C1)Cn1c-2c(C2CCCCC2)c2ccc(C(=O)NS(=O)(=O)N(C)C)cc21 (mixture of isomers) ): 93%

Consider COc1ccc2c(c1)C1CC1(C(=O)N1CC(O)(C(F)(F)F)C1)Cn1c-2c(C2CCCCC2)c2ccc(C(=O)NS(=O)(=O)N(C)C)cc21 (racemic) . Its measured Stability is 100%

---

Assignment: determine reported pEC50 for the given compounds.
Molecular target: Cytochrome P450 1A2 (Homo sapiens, UniProt P05177)
Sequence (P05177 whole entry): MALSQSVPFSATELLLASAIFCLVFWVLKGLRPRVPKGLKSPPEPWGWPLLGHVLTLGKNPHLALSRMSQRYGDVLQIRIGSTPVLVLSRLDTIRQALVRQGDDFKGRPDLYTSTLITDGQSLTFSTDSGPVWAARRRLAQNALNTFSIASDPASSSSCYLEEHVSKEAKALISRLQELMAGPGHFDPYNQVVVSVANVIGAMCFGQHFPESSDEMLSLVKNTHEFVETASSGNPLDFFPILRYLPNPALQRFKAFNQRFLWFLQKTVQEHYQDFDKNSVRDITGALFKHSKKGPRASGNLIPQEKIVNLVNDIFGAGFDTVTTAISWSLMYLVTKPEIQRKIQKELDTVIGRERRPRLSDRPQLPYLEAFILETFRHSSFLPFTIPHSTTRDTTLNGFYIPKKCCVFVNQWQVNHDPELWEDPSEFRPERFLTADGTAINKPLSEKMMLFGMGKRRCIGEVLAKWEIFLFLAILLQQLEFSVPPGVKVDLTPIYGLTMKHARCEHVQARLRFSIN
Test: Inhibition of CYP1A2 in human liver microsomes after 30 mins in presence of NADPH
pEC50: −log10 of the molar value.

// sample "COc1ccc2c(c1)[C@@H]1C[C@]1(C(=O)N1C3CC1CN(C)C3)Cn1c-2c(C2CCCCC2)c2ccc(C(=O)NS(=O)(=O)N(C)C)cc21" , its pEC50 was < 4.40

compound COc1ccc2c(c1)C1CC1(C(=O)N1C3CC1CN(Cc1ccccc1)C3)Cn1c-2c(C2CCCCC2)c2ccc(C(=O)NS(=O)(=O)N(C)C)cc21 (racemic) , pEC50 observed: < 4.89

Please fill in: pEC50 reported for COc1ccc2c(c1)C1CC1(C(=O)N1C3CNCC1C3)Cn1c-2c(C2CCCCC2)c2ccc(C(=O)NS(=O)(=O)N(C)C)cc21 (racemic) = < 4.40

Item: "CCN1CC2CC(C1)N2C(=O)[C@]12C[C@H]1c1cc(OC)ccc1-c1c(C3CCCCC3)c3ccc(C(=O)NS(=O)(=O)N(C)C)cc3n1C2" | pEC50: < 4.40

---

Assay: Half life in rat at 10 mg/kg, po
Conditions: in vivo
measured-metric: half-life
Answer shape: numeric part, then the unit.

So for "COc1ccc2c(c1)[C@@H]1C[C@]1(C(=O)N1[C@@H]3CC[C@H]1CN(C)C3)Cn1c-2c(C2CCCCC2)c2ccc(C(=O)NS(=O)(=O)N(C)C)cc21" , the logged half-life turned out to be 8.3 h
